Test system: Plasmodium falciparum
Assay: GSK_TCMDC: Inhibition of Plasmodium falciparum 3D7 in whole red blood cells, using parasite LDH activity as an index of growth. Test compounds present at 2uM
Format: functional
Result type: Inhibition (%)
Numbers only, in %.

Cc1c(-c2cccc(Br)c2)[nH]c2nc(N)nc(N)c12 :: 100

Items follow; give Inhibition for each.
1. O=C(Nc1ccc(CN2CCN(S(=O)(=O)c3cccc(Cl)c3)CC2)cc1)c1cccs1.O=C(O)C(F)(F)F
2. CCCCNCc1ccc(OCc2cccc(COc3ccc(CNCCCC)cc3)c2)cc1.Cl
3. N#CC1(c2ccccc2)CCN(c2nc(NCCCN3CCCC3=O)nc(N3CCCC4CCCCC43)n2)CC1 (centres undefined)
4. Cc1ccc(C)c(S(=O)(=O)NCC2CCN(Cc3ccc(O)cc3)CC2)c1.O=C(O)C(F)(F)F
5. CCCCCCCC1CC(CC(=O)Nc2ccnc3ccc(OC)cc23)CN1C(=O)OC(C)(C)C (centres undefined)
6. O=C(O)C(F)(F)F.c1cc(CN2CCCCC2)cc(-c2ccc(-c3nc4ccccc4[nH]3)s2)c1
7. O=C(NCCc1ccccc1F)c1cc(Br)cc(N2CCN(c3ccncc3)CC2)c1.O=C(O)C(F)(F)F

1: 84; 2: 100; 3: 95; 4: 87; 5: 100; 6: 100; 7: 97

Item under review: Br.CC1(C)N=C(N)N=C(N)N1OCCc1ccc2ccccc2c1 . Reported Inhibition?
96
